Source: patent US20250340662A1

- Assayed target: CD44v6 on cultured cancer cells (BHT-101, ACT-1, A431) (human) (UniProt P16070)
- Procedure summary: LigandTracer, 125I-IgG4 on BHT-101 cells
Please respond with reported Kd for every item in the list.
One number for each entry, in nM.

Reference set (2 entries):
- Binder: "AL-MN114-71 hIgG4 (antibody, V domains shown) VH: EVQLLESGGGLVQPGGSLRLSCAASGFSFRSFAMSWVRQAPGKGLEWVSAISGGGSSTFYADSVKGRFTISRDNSKNTLYLQMNSLRAEDTAVYYCARHYYSDSDYRSSAAMDYWGQGTLVTVSS VL: DIQMTQSPSSLSASVGDRVTITCRASQSISSYLNWYQQKPGKAPKLLIYAASTLQSGVPSRFSGSGSGTDFTLTISSLQPEDFATYYCQQDLYLLTFGQGTKLEIK"
  Unit descriptor: "nM"
  Kd: 0.02
- Binder: "AL-MN114-429 hIgG4 (antibody, V domains shown) VH: EVQLLESGGGLVQPGGSLRLSCAASGFSFSSFAMSWVRQAPGKGLEWVSAISAGGSSTYYADSVKGRFTISRDNSKNTLYLQMNSLRAEDTAVYYCARHYYSDSDYRSSAAMDYWGQGTLVTVSS VL: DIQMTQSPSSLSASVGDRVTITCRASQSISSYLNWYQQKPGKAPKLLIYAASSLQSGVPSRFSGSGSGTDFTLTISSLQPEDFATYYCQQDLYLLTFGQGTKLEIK"
  Unit descriptor: "nM"
  Kd: 0.06

Each of the following entries comes with a recorded value; kindly state Kd for each.
1. AL-MN114-18 hIgG4 (antibody, V domains shown) VH: EVQLLESGGGLVQPGGSLRLSCAASGFSFGSFAMSWVRQAPGKGLEWVSAISGGGSSTYYADSVKGRFTISRDNSKNTLYLQMNSLRAEDTAVYYCARHYYSDSDYRSSAAMDYWGQGTLVTVSS VL: DIQMTQSPSSLSASVGDRVTITCRASQTIASYLNWYQQKPGKAPKLLIYTASNLQSGVPSRFSGSGSGTDFTLTISSLQPEDFATYYCQQDLYLLTFGQGTKLEIK
2. AL-MN114-79 hIgG4 (antibody, V domains shown) VH: EVQLLESGGGLVQPGGSLRLSCAASGFTFRSFAMSWVRQAPGKGLEWVSTISAGGSSTFYADSVKGRFTISRDNSKNTLYLQMNSLRAEDTAVYYCARHYYSDSDYRSSAAMDYWGQGTLVTVSS VL: DIQMTQSPSSLSASVGDRVTITCRASQSIANYLNWYQQKPGKAPKLLIYAASTLQSGVPSRFSGSGSGTDFTLTISSLQPEDFATYYCQQDLYLLTFGQGTKLEIK
3. AL-MN114-19 hIgG4 (antibody, V domains shown) VH: EVQLLESGGGLVQPGGSLRLSCAASGFSFGSYAMSWVRQAPGKGLEWVSAISGGGSSTFYADSVKGRFTISRDNSKNTLYLQMNSLRAEDTAVYYCARHYYSDSDYRSSAAMDYWGQGTLVTVSS VL: DIQMTQSPSSLSASVGDRVTITCRASQSISSYLNWYQQKPGKAPKLLIYSASSLQSGVPSRFSGSGSGTDFTLTISSLQPEDFATYYCQQDLYLLTFGQGTKLEIK
4. AL-MN114-444 hIgG4 (antibody, V domains shown) VH: EVQLLESGGGLVQPGGSLRLSCAASGFTFRSFAMSWVRQAPGKGLEWVSAISGGGSSTFYADSVKGRFTISRDNSKNTLYLQMNSLRAEDTAVYYCARHYYSDSDYRSSAAMDYWGQGTLVTVSS VL: DIQMTQSPSSLSASVGDRVTITCRASQSIGSYLNWYQQKPGKAPKLLIYSASSLQSGVPSRFSGSGSGTDFTLTISSLQPEDFATYYCQQDLYLLTFGQGTKLEIK
5. AL-MN114-435 hIgG4 (antibody, V domains shown) VH: EVQLLESGGGLVQPGGSLRLSCAASGFTFSSYAMSWVRQAPGKGLEWVSAISAGGSSTFYADSVKGRFTISRDNSKNTLYLQMNSLRAEDTAVYYCARHYYSDSDYRSSAAMDYWGQGTLVTVSS VL: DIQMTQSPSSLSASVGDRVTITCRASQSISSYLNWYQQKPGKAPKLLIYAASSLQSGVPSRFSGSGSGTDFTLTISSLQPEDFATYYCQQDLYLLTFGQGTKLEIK
6. AL-MN114-423 hIgG4 (antibody, V domains shown) VH: EVQLLESGGGLVQPGGSLRLSCAASGFTFSSYAMSWVRQAPGKGLEWVSAISAGGTSTYYADSVKGRFTISRDNSKNTLYLQMNSLRAEDTAVYYCARHYYSDSDYRSSAAMDYWGQGTLVTVSS VL: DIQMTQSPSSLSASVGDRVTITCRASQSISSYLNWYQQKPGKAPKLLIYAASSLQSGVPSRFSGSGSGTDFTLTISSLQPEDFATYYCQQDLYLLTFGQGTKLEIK

1. 0.02
2. 0.03
3. 0.04
4. 0.02
5. 0.02
6. 0.1

Each of the following entries comes with a recorded value; kindly state Kd for each.
1. AL-MN114-465 hIgG4 (antibody, V domains shown) VH: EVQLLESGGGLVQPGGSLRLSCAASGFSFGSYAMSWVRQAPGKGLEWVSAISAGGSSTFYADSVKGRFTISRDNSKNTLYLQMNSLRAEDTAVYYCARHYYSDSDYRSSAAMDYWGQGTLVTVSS VL: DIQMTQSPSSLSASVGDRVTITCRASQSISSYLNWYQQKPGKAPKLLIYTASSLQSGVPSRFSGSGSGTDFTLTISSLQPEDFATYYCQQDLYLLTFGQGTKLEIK
2. AL-MN114-42 hIgG4 (antibody, V domains shown) VH: EVQLLESGGGLVQPGGSLRLSCAASGFTFSSYAMSWVRQAPGKGLEWVSAISGGGYSTYYADSVKGRFTISRDNSKNTLYLQMNSLRAEDTAVYYCARHYYSDSDYRSSAAMDYWGQGTLVTVSS VL: DIQMTQSPSSLSASVGDRVTITCRASQTIGSYLNWYQQKPGKAPKLLIYSASILQSGVPSRFSGSGSGTDFTLTISSLQPEDFATYYCQQDLYLLTFGQGTKLEIK
3. AL-MN114-126 hIgG4 (antibody, V domains shown) VH: EVQLLESGGGLVQPGGSLRLSCAASGFTFSSYAMSWVRQAPGKGLEWVSAISAGGSSTYYADSVKGRFTISRDNSKNTLYLQMNSLRAEDTAVYYCARHYYSDSDYRSSAAMDYWGQGTLVTVSS VL: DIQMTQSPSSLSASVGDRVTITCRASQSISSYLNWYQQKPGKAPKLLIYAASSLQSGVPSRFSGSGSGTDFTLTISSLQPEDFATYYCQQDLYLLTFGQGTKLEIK

1: 0.03; 2: 0.04; 3: 0.04
